# Read-out: Intercellular Adhesion Molecule 1 (ICAM1), ICAM1 (gene 3383)
# assay: BSK_KF3CT_ICAM1: BioMAP Diversity Plus: KF3CT Assay for Intercellular Adhesion Molecule 1 (ICAM1) Biomarker Activity (AID 2283067)
# measurement_context: primary human keratinocytes with fibroblasts; actives raise or lower the signal
# Experimental: BSK_KF3CT is a cell-based, multiplexed-readout assay that uses keratinocytes and foreskin fibroblasts, a human skin primary cell co-culture, with measurements taken at 24 hours after chemical dosing in a 96-well plate.BSK_KF3CT_ICAM1 is an assay component measured in the BSK_KF3CT assay. It measures ICAM-1 antibody related to regulation of gene expression using ELISA technology.Data from the assay component BSK_KF3CT_ICAM1 was analyzed into 1 assay endpoint. […]
Active and inactive are the calls of the source. The calls were made as follows: active = hit-call score of the fitted dose curve at least 0.9, where 1 is the maximum; inactive = score below 0.9.
Labels: true (1) (active), false (0) (inactive)

In [3]: df
Out[3]:
                                    compound  class_label
 0                        CCNc1nc(N)nc(Cl)n1    false (0)
 1  C[C@]12C[C@H](O)[C@H]3[C@@H](CCC4=CC(=O)CC[C@@]43C)[C@@H]1CC[C@@H]2C(=O)CO    false (0)
 2  COC(=O)c1ccc(CNS(C)(=O)=O)cc1S(=O)(=O)NC(=O)Nc1nc(OC)cc(OC)n1    false (0)
 3  CCCN(CCC)c1c([N+](=O)[O-])cc(C(F)(F)F)c(N)c1[N+](=O)[O-]     true (1)
 4  CCCCOC(=O)[C@@H](C)Oc1ccc(Oc2ccc(C(F)(F)F)cn2)cc1    false (0)
 5  S=C(S)NCCNC(=S)S.[Mn+2].[S-]C([S-])=NCCN=C([S-])[S-].[Zn+2]    false (0)
 6  CC(C)(C)[C@@H](O)[C@@H](Cc1ccc(Cl)cc1)n1cncn1    false (0)
 7                      CSC(=O)c1cccc2nnsc12    false (0)
 8  CC1(C)C(C=C(Cl)Cl)C1C(=O)OCc1cccc(Oc2ccccc2)c1 (stereo not given)    false (0)
 9  COc1nc(C)nc(NC(=O)NS(=O)(=O)c2ccccc2OCCCl)n1    false (0)
10               CN(C)C(=O)Nc1ccc(Cl)c(Cl)c1    false (0)
11  CCOC(=O)COc1cc(-n2ncc(C(F)(F)F)c(C)c2=O)c(F)cc1Cl    false (0)
12      Oc1ccc(C(c2ccc(O)cc2)C(Cl)(Cl)Cl)cc1     true (1)
13  CCOC(=O)C(C)Oc1ccc(Oc2cnc3cc(Cl)ccc3n2)cc1 (stereo not given)    false (0)
14             CC(C)(c1ccc(O)cc1)c1ccc(O)cc1    false (0)
15  CCCCOC(=O)C(C)Oc1ccc(Oc2ccc(C(F)(F)F)cn2)cc1 (stereo not given)    false (0)
16  COC(=O)c1ccccc1S(=O)(=O)NC(=O)Nc1nc(OC(F)F)cc(OC(F)F)n1    false (0)
17  O=C(Nc1ccc([N+](=O)[O-])cc1Cl)c1cc(Cl)ccc1O     true (1)
18                  COc1c(Cl)ccc(Cl)c1C(=O)O    false (0)
19                       c1ccc(Nc2ccccc2)cc1    false (0)
20  CCCCCCC(C)OC(=O)COc1nc(F)c(Cl)c(N)c1Cl (stereo not given)     true (1)
21  CCN(Cc1c(F)cccc1Cl)c1c([N+](=O)[O-])cc(C(F)(F)F)cc1[N+](=O)[O-]    false (0)
22  Cc1nn(C)c(Oc2ccccc2)c1C=NOCc1ccc(C(=O)OC(C)(C)C)cc1    false (0)
23                     O=C(c1ccccc1)C1CCCCC1    false (0)
24  CCCCC(CC)CN1C(=O)C2C3C=CC(C3)C2C1=O (stereo not given)    false (0)
25                   CCN(CC)C(=O)c1cccc(C)c1    false (0)
26  COC(=O)c1c(Cl)nn(C)c1S(=O)(=O)NC(=O)Nc1nc(OC)cc(OC)n1    false (0)
27  CCCCC(CC)COC(=O)c1ccccc1C(=O)O (stereo not given)    false (0)
28  CCOC(=O)[C@H](C)Oc1ccc(Oc2nc3ccc(Cl)cc3o2)cc1    false (0)
29                    CC(C)CCCCCCc1ccc(O)cc1     true (1)
30  COC(=O)c1ccc(I)cc1S(=O)(=O)NC(=O)Nc1nc(C)nc(OC)n1    false (0)
31                                     COCCO    false (0)
32  CCCCCOC(=O)COc1cc(N2C(=O)C3=C(CCCC3)C2=O)c(F)cc1Cl    false (0)
33              CCCOC(=O)c1ccc(C(=O)OCCC)nc1    false (0)
34            CCCCOCCOCCOCc1cc2c(cc1CCC)OCO2    false (0)
35  N[C@@H](Cc1cc(I)c(Oc2ccc(O)c(I)c2)c(I)c1)C(=O)O    false (0)
36  CC(=O)[C@H]1CC[C@H]2[C@@H]3CCC4=CC(=O)CC[C@]4(C)[C@H]3CC[C@]12C    false (0)
37  C=CCOC(Cn1ccnc1)c1ccc(Cl)cc1Cl (stereo not given)    false (0)
38                         CCCN(CCC)C(=O)SCC    false (0)
39  C[C@]12CC[C@@H]3c4ccc(O)cc4C[C@@H](CCCCCCCCCS(=O)CCCC(F)(F)C(F)(F)F)[C@H]3[C@@H]1CC[C@@H]2O (stereo not given in full)    false (0)
